assay-details: chemical genetic growth profiling, strain panel (AID 1159580);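 further: tested at 20 µM; growth read once vehicle control cultures reached saturation at 30 °C; 1 = growth at the plate median or of vehicle wells; lower values mean less growth of the strain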
reported-conditions: S. cerevisiae deletion strains, growth OD, locus YGR092W, strain DBF2, hits give low values
Among all 5,500 compounds or so, about 2,000 (36%) were called active. About 18% were inconclusive and are not listed. Some of the results follow.
quantity-measured: normalized growth
Please respond with just the number, no unit label.

Q: Look up normalized growth: O=C1C(=O)N(CN2CCc3c([nH]c4ccccc34)C2C(F)(F)F)c2ccc(F)cc21 (stereo not drawn)
Result: 0.612

Q: Look up normalized growth: "Cc1cc(Cl)ccc1NNC(=O)c1ccno1"
Result: 0.912

Q: Look up normalized growth: COc1cc2c(cc1OC)C(C)N(C(=O)c1sc3ccccc3c1Cl)CC2 (stereo not drawn)
Result: 0.921
